target under test: T1, hD53 bait (GAL4 DNA-binding domain fusion, pAS2-1hD53) (human, UniProt P04386 1-147 (Saccharomyces cerevisiae entry))
T1 construct: Fusion expressed in yeast; also called full-length hD53 bait
measurement protocol: yeast two-hybrid, Y190 co-transfectants, HIS3/lacZ reporters; interactor (GAL4-AD fusion) against bait (GAL4-DB fusion)

# binder, binding result
data = [
    ("mD52(1-163) interactor (GAL4 activation domain fusion, pACT2mD52(1-163)) (other, range 768-881) ANFNQSGNIADSSLSFTFTNSSNGPNLITTQTNSQALSQPIASSNVHDNFMNNEITASKIDDGNNSKPLSPGWTDQTAYNAFGITTGMFNTTTMDDVYNYLFDDEDTPPNPKKEMDRGEQGLLKTEPVAEEGEDAVTMLSAPEALTEEEQEELRRELTKVEEEIQTLSQVLAAKEKHLAELKRKLGISSLQEFKQNIAKGWQDVTATNAYKKTSETLSQAGQKASAAFSSVGSVITKKLEDVKNSPTFKSFEEKVENLKSKVGGAKPAGGDFGEVLN", "binds"),
]
